Each entry below lists one item and its recorded AC50 value.
- targetSystem: Kappa-type opioid receptor (Homo sapiens, UniProt P41145); further: assay procedure not described here
- Sequence (P41145 whole entry): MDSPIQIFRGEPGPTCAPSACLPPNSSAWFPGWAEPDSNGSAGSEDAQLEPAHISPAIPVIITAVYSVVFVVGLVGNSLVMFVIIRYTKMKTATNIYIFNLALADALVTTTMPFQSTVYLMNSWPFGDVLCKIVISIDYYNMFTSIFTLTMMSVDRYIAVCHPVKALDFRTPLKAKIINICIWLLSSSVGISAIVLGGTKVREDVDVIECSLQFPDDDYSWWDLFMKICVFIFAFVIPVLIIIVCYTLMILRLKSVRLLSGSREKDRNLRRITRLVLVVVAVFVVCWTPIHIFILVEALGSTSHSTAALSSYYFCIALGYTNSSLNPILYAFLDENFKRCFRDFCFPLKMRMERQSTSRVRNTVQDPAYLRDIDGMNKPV

Some entries whose results are on file:
compound: C[C@@H]1O[C@@H]1P(=O)(O)O
AC50: > 10 µM
--
compound: COc1c(C)c2c(c(O)c1C/C=C(\C)CCC(=O)OCCN1CCOCC1)C(=O)OC2 [MYCOPHENOLATE MOFETIL]
AC50: > 30 µM
--
compound: CCOc1cc(N)c([N+](=O)[O-])cc1C(=O)NC1CCN(CC2CC=CCC2)CC1 (centres undefined) [CINITAPRIDE]
AC50: 9.1 µM

Lookup: Kindly state the measured AC50 obtained for `CN1CCc2cccc3c2[C@H]1Cc1ccc(O)c(O)c1-3` with Kappa-type opioid receptor (Homo sapiens, UniProt P41145).
Found: 19.4 µM

Lookup: Kindly state the measured AC50 obtained for `Cc1cc(-c2ccccc2)nnc1NCCN1CCOCC1` with Kappa-type opioid receptor (Homo sapiens, UniProt P41145).
Found: > 10 µM

Lookup: Kindly state the measured AC50 obtained for CC(=O)NS(=O)(=O)c1ccc(N)cc1 [SULFACETAMIDE] with Kappa-type opioid receptor (Homo sapiens, UniProt P41145).
Found: > 10 µM

Lookup: Kindly state the measured AC50 obtained for `Cc1ccc(-c2nc3ccc(C)cn3c2CC(=O)N(C)C)cc1` with Kappa-type opioid receptor (Homo sapiens, UniProt P41145).
Found: 18 µM

Lookup: Kindly state the measured AC50 obtained for COC(=O)C1=C(C)NC(C)=C(C(=O)OCC(C)C)C1c1ccccc1[N+](=O)[O-] (centres undefined) with Kappa-type opioid receptor (Homo sapiens, UniProt P41145).
Found: > 10 µM

Lookup: Kindly state the measured AC50 obtained for `CCc1nn(CCCN2CCN(c3cccc(Cl)c3)CC2)c(=O)n1CCOc1ccccc1` with Kappa-type opioid receptor (Homo sapiens, UniProt P41145).
Found: 5.46 µM

* * *

- targetSystem: 3',5'-cyclic-AMP phosphodiesterase 4A (Homo sapiens); further: assay procedure not described here
- Sequence (P27815 whole entry): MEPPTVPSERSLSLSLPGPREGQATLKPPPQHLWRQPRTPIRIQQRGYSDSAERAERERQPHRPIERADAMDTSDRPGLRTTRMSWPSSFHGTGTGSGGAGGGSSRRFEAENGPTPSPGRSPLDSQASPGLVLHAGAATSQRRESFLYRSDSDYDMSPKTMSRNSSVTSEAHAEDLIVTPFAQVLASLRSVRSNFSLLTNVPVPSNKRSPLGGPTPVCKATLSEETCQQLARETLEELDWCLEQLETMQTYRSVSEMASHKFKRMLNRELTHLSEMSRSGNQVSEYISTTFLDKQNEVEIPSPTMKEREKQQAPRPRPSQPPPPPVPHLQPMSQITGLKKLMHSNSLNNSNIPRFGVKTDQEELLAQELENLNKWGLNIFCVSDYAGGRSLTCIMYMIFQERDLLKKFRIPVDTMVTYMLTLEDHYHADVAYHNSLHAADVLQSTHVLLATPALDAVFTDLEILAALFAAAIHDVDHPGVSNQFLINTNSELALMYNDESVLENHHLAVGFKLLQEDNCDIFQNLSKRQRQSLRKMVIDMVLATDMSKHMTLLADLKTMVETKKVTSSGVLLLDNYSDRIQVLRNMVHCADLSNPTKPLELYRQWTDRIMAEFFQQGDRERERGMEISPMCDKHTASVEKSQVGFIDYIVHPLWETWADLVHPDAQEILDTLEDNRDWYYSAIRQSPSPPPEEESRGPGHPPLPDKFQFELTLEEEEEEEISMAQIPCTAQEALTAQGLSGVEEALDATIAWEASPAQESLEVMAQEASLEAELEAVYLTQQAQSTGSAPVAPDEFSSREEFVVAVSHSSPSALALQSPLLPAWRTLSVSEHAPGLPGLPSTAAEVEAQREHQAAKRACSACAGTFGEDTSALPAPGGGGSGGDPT
- Type: functional
Each entry below lists one item and its recorded AC50 value.

Lookup: Kindly state the measured AC50 obtained for CCCCN(CCCC)CCCOC(=O)c1ccc(N)cc1 [BUTACAINE] with 3',5'-cyclic-AMP phosphodiesterase 4A (Homo sapiens).
Found: > 30 µM

Lookup: Kindly state the measured AC50 obtained for O=C1CN=C(c2ccccc2)c2c(sc3c2CCCC3)N1 [BENTAZEPAM] with 3',5'-cyclic-AMP phosphodiesterase 4A (Homo sapiens).
Found: 15.7 µM

Lookup: Kindly state the measured AC50 obtained for CN(C)c1ccc(C(=C2C=CC(=[N+](C)C)C=C2)c2ccc(N(C)C)cc2)cc1 [GENTIAN VIOLET] with 3',5'-cyclic-AMP phosphodiesterase 4A (Homo sapiens).
Found: 13.2 µM

Lookup: Kindly state the measured AC50 obtained for CS(=O)(=O)c1ccc([C@@H](O)[C@@H](CO)NC(=O)C(Cl)Cl)cc1 [THIAMPHENICOL] with 3',5'-cyclic-AMP phosphodiesterase 4A (Homo sapiens).
Found: > 30 µM

Lookup: Kindly state the measured AC50 obtained for CC(C)=CCC1C(=O)N(c2ccccc2)N(c2ccccc2)C1=O [FEPRAZONE] with 3',5'-cyclic-AMP phosphodiesterase 4A (Homo sapiens).
Found: > 30 µM

Lookup: Kindly state the measured AC50 obtained for Cc1c(-c2ccccc2)oc2c(C(=O)OCCN3CCCCC3)cccc2c1=O [FLAVOXATE] with 3',5'-cyclic-AMP phosphodiesterase 4A (Homo sapiens).
Found: 6.12 µM

Lookup: Kindly state the measured AC50 obtained for COc1cc(Nc2c(C#N)cnc3cc(OCCCN4CCN(C)CC4)c(OC)cc23)c(Cl)cc1Cl [BOSUTINIB] with 3',5'-cyclic-AMP phosphodiesterase 4A (Homo sapiens).
Found: > 30 µM

Lookup: Kindly state the measured AC50 obtained for O=C1c2ccccc2C(=O)C1C(=O)C(c1ccccc1)c1ccccc1 [DIPHENADIONE] with 3',5'-cyclic-AMP phosphodiesterase 4A (Homo sapiens).
Found: > 30 µM

Lookup: Kindly state the measured AC50 obtained for CN1CCCC(CN2c3ccccc3Sc3ccccc32)C1 (centres undefined) [MEPAZINE] with 3',5'-cyclic-AMP phosphodiesterase 4A (Homo sapiens).
Found: > 30 µM

* * *

- targetSystem: Alpha-2A adrenergic receptor (Homo sapiens); further: assay procedure not described here
- Sequence (P08913 whole entry): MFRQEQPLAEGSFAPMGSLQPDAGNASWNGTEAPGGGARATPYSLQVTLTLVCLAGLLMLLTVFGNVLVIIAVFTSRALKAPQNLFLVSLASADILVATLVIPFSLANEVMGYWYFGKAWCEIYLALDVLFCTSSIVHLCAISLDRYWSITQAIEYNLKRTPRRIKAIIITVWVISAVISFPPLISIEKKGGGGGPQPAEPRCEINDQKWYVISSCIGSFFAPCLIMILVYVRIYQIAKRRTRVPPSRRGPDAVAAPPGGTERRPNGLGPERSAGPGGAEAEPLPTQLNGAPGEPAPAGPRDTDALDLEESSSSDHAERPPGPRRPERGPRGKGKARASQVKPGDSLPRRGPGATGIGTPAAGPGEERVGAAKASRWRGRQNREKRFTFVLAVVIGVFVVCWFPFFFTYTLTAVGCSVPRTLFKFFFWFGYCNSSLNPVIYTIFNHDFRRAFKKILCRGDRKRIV
- Type: functional, cell-based
endpointLabel: AC50

Some entries whose results are on file:
molecule: Cc1ccc(-c2nc3ccc(C)cn3c2CC(=O)N(C)C)cc1
result: > 30 µM
--
molecule: NS(=O)(=O)c1cc(Cl)c(Cl)c(S(N)(=O)=O)c1 [DICHLORPHENAMIDE]
result: > 10 µM
--
molecule: CCCC(=O)N1CCCN(c2nc(N)c3cc(OC)c(OC)cc3n2)CC1
result: > 30 µM
--
molecule: CC(=O)O[C@@]12CO[C@@H]1C[C@H](O)[C@@]1(C)C(=O)[C@H](O)C3=C(C)[C@@H](OC(=O)[C@H](O)[C@@H](NC(=O)OC(C)(C)C)c4ccccc4)C[C@@](O)([C@@H](OC(=O)c4ccccc4)[C@H]21)C3(C)C [DOCETAXEL ANHYDROUS]
result: > 30 µM
--
molecule: NC(CO)C(=O)NNCc1ccc(O)c(O)c1O (stereo not drawn) [BENSERAZIDE]
result: > 10 µM
--
molecule: CCOc1cc(N)c([N+](=O)[O-])cc1C(=O)NC1CCN(CC2CC=CCC2)CC1 (stereo not drawn) [CINITAPRIDE]
result: > 30 µM
--
molecule: COc1c(N2CCNC(C)C2)c(F)cc2c(=O)c(C(=O)O)cn(C3CC3)c12 (stereo not drawn)
result: > 10 µM

Lookup: Kindly state the measured AC50 obtained for `COc1ccc2c(c1)c(CC(=O)OCC(=O)O)c(C)n2C(=O)c1ccc(Cl)cc1` with Alpha-2A adrenergic receptor (Homo sapiens).
Found: > 30 µM

* * *

Each entry below lists one item and its recorded AC50 value.
- targetSystem: Sodium-dependent dopamine transporter (Homo sapiens, UniProt Q01959); further: assay procedure not described here
- Sequence (Q01959 whole entry): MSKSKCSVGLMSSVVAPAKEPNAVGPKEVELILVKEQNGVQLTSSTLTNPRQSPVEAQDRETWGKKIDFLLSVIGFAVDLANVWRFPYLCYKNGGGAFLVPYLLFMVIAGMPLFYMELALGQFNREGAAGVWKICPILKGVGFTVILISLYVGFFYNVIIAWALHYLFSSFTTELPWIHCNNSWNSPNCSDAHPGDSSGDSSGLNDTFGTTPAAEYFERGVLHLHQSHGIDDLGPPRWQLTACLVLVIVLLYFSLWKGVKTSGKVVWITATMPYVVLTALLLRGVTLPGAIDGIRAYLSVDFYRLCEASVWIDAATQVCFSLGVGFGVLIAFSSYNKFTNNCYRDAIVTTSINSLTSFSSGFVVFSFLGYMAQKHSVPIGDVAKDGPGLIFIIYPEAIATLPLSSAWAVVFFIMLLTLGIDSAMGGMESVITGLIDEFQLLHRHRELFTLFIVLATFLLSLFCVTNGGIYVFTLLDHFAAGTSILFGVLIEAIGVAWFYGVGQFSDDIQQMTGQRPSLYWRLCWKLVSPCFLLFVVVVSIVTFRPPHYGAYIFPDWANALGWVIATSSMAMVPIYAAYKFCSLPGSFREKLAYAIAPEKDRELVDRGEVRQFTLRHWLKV

structureString: CC[C@@H]1/C=C(\C)C[C@H](C)C[C@H](OC)[C@H]2O[C@@](O)(C(=O)C(=O)N3CCCC[C@H]3C(=O)O[C@H](/C(C)=C/[C@@H]3CC[C@H](Cl)[C@H](OC)C3)[C@H](C)[C@@H](O)CC1=O)[C@H](C)C[C@@H]2OC
targetSystem: Sodium-dependent dopamine transporter (Homo sapiens, UniProt Q01959); further: assay procedure not described here
result: > 30 µM

Lookup: Kindly state the measured AC50 obtained for `CCS(=O)(=O)N1CC(CC#N)(n2cc(-c3ncnc4[nH]ccc34)cn2)C1` with Sodium-dependent dopamine transporter (Homo sapiens, UniProt Q01959).
Found: > 30 µM

Lookup: Kindly state the measured AC50 obtained for `O=C(c1ccc(F)c(F)c1Nc1ccc(I)cc1F)N1CC(O)([C@@H]2CCCCN2)C1` with Sodium-dependent dopamine transporter (Homo sapiens, UniProt Q01959).
Found: 7.3 µM

Lookup: Kindly state the measured AC50 obtained for `C[C@@H]1C[C@H]2[C@@H]3C[C@H](F)C4=CC(=O)C(Cl)=C[C@]4(C)[C@@]3(F)[C@@H](O)C[C@]2(C)[C@@]1(O)C(=O)CO` with Sodium-dependent dopamine transporter (Homo sapiens, UniProt Q01959).
Found: > 30 µM

* * *

- targetSystem: Muscarinic acetylcholine receptor M1 (Homo sapiens); further: assay procedure not described here
- Sequence (P11229 whole entry): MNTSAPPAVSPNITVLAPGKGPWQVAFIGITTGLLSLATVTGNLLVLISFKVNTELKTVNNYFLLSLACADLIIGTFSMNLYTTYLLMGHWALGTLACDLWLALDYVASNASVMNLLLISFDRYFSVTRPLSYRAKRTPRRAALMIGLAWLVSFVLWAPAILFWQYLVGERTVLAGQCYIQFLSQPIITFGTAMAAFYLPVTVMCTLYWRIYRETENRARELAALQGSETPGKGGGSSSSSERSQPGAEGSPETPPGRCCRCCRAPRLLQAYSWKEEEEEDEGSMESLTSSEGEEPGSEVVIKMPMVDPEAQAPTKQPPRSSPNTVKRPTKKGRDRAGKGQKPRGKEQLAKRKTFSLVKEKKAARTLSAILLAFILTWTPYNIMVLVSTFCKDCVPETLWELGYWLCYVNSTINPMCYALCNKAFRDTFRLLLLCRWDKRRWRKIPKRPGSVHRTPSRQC
- Format: functional, cell-based
endpointLabel: AC50

compound: NC(=O)c1cccc2cn(-c3ccc([C@@H]4CCCNC4)cc3)nc12
AC50: > 30 µM

Lookup: Kindly state the measured AC50 obtained for `COc1cc(Nc2c(C#N)cnc3cc(OCCCN4CCN(C)CC4)c(OC)cc23)c(Cl)cc1Cl` with Muscarinic acetylcholine receptor M1 (Homo sapiens).
Found: > 3 µM

Lookup: Kindly state the measured AC50 obtained for `CCN(CC)CCNc1ccc(C)c2sc3ccccc3c(=O)c12` with Muscarinic acetylcholine receptor M1 (Homo sapiens).
Found: 4.21 µM

Lookup: Kindly state the measured AC50 obtained for `O=C(O)CCCN1CCC(O[C@@H](c2ccc(Cl)cc2)c2ccccn2)CC1` with Muscarinic acetylcholine receptor M1 (Homo sapiens).
Found: > 30 µM

Lookup: Kindly state the measured AC50 obtained for CCCC1C(=O)N2C(N(C)C)=Nc3ccc(C)cc3N2C1=O (stereo not given) with Muscarinic acetylcholine receptor M1 (Homo sapiens).
Found: > 30 µM

* * *

- targetSystem: Amine oxidase [flavin-containing] A (Homo sapiens, UniProt P21397); further: assay procedure not described here
- Sequence (P21397 whole entry): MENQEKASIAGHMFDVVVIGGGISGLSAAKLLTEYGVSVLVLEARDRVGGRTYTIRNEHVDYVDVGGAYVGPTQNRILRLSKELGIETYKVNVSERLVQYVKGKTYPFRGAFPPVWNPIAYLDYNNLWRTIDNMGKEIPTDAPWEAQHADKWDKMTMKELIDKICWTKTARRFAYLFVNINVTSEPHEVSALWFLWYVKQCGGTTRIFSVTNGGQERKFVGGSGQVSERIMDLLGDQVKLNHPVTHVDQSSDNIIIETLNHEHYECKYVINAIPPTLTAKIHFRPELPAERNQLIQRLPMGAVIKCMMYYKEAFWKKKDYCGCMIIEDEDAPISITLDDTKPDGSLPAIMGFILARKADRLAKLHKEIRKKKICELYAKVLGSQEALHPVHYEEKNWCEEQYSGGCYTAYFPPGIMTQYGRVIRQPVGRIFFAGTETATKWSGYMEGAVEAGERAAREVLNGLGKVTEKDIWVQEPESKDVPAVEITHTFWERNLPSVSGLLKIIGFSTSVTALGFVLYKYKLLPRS
- Type: functional
Each entry below lists one item and its recorded AC50 value.

compound: CCC1(C2=CCCCCC2)C(=O)NC(=O)NC1=O
AC50: > 10 µM
--
compound: COc1ccc2c(c1)C(=O)N(CCc1ccc(S(=O)(=O)NC(=O)NC3CCCCC3)cc1)C(=O)C2(C)C
AC50: > 30 µM
--
compound: O=C(NC[C@H]1CN(c2ccc(N3CCOCC3=O)cc2)C(=O)O1)c1ccc(Cl)s1
AC50: > 30 µM

Lookup: Fill blank: measured AC50 of the compound `C[C@]12CCC(=O)C=C1CC[C@@H]1[C@@H]2CC[C@@]2(C)[C@H]1CC[C@]2(C)O` is ____.
Found: > 30 µM

Lookup: Fill blank: measured AC50 of the compound CN1C(=O)CC(C)(c2ccccc2)C1=O (stereo not given) [METHSUXIMIDE] is ____.
Found: > 10 µM
